Target: ATP-dependent translocase ABCB1 (Homo sapiens, UniProt P08183)
Sequence (P08183 whole entry): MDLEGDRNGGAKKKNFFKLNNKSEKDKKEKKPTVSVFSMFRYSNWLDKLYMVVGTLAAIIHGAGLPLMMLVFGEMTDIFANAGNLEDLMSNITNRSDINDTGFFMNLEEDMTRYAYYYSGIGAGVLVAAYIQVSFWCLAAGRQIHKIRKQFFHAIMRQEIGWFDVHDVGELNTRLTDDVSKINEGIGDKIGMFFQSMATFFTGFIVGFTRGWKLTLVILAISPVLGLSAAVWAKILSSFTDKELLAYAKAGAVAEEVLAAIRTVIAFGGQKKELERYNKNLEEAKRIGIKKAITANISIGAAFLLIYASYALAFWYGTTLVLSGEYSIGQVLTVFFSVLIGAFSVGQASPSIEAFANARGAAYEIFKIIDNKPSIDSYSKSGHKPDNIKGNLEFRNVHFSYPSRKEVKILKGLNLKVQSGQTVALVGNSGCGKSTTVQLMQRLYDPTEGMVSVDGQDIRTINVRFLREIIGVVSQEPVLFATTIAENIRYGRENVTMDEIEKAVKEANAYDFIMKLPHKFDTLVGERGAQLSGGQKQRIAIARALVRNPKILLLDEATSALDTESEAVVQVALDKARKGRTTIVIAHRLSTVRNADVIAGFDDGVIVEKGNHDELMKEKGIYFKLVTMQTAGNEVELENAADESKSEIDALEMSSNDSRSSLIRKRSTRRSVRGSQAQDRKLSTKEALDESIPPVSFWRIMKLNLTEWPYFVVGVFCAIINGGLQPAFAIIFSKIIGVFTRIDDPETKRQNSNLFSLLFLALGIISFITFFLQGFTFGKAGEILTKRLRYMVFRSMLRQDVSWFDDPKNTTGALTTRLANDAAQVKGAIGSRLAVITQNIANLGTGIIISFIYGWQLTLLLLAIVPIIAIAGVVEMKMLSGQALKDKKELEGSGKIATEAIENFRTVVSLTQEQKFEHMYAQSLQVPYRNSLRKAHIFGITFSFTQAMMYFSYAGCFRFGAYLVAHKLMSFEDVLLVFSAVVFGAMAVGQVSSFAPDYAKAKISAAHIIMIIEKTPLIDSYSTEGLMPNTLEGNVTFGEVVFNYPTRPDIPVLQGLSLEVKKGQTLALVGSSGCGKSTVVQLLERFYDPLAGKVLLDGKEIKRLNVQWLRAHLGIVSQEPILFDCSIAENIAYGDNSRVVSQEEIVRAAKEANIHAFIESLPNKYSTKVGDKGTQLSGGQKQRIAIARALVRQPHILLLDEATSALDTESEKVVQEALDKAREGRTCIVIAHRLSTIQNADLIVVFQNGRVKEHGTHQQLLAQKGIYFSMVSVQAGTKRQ
Test: Inhibition of MDR1-mediated rhodamine 123 uptake expressed in mouse L5178Y cells transfected with pHa MDR1/A assessed as fluorescence activity ratio at 4 ug/mL by flow cytometry relative to untreated control
Assay type: cell-based
Experimental endpoint: Ratio

Check out these entries, answers already filled in.
[
  {
    "Compound": "C=C1[C@H](OC(=O)C(C)C)[C@@H](OC(C)=O)[C@@H](OC(C)=O)C(C)(C)[C@@H]2O[C@](O)([C@H](C)[C@@H]2OC(C)=O)[C@@]2(OC(C)=O)C[C@@](C)(OC(C)=O)[C@H](OC(C)=O)[C@@H]2[C@H]1OC(C)=O",
    "Ratio": 1.4
  },
  {
    "Compound": "C=C1[C@H](OC(=O)C(C)C)C[C@@H](OC(=O)c2cccnc2)C(C)(C)/C=C/[C@@H](C)C(=O)[C@@]2(OC(C)=O)C[C@H](C)[C@H](OC(C)=O)[C@@H]2[C@H]1OC(C)=O",
    "Ratio": 16.6
  },
  {
    "Compound": "C=C1[C@H](OC(C)=O)CC(=O)C(C)(C)/C=C/[C@@H](C)C(=O)[C@@]2(OC(C)=O)C[C@@](C)(OC(=O)c3ccccc3)[C@H](OC(C)=O)[C@@H]2[C@H]1OC(C)=O [ESULATIN I]",
    "Ratio": 3.9
  },
  {
    "Compound": "C=C1[C@H](OC(C)=O)C[C@@H](OC(C)=O)C(C)(C)/C=C/[C@@H](C)C(=O)[C@@]2(OC(C)=O)C[C@@](C)(OC(C)=O)[C@H](OC(C)=O)[C@@H]2[C@H]1OC(C)=O [ESULATIN D]",
    "Ratio": 4.6
  }
]

Please find the next compound below.
C=C1[C@H](OC(=O)C(C)C)C[C@@H](OC(=O)c2cccnc2)C(C)(C)/C=C/[C@@H](C)C(=O)[C@@]2(OC(C)=O)C[C@@](C)(OC(C)=O)[C@H](OC(C)=O)[C@@H]2[C@H]1OC(C)=O yielded Ratio of 23.8

---

Entries and their measured inhibition of growth at 30 µg/mL follow.
Tested on: HeLa
Experiment: Antiproliferative activity against human HeLa cells assessed as growth inhibition at 30 ug/mL after 72 hrs by MTT assay
Type: functional
Conditions: read-out: GI
Answer format: numeric, % implied, no suffix.

Check out these entries, answers already filled in.
[
  {
    "Compound smiles": "C=C1[C@H](OC(=O)C(C)C)[C@@H](OC(C)=O)[C@@H](OC(C)=O)C(C)(C)[C@@H]2O[C@](O)([C@H](C)[C@@H]2OC(C)=O)[C@@]2(OC(C)=O)C[C@@](C)(OC(C)=O)[C@H](OC(C)=O)[C@@H]2[C@H]1OC(C)=O",
    "Units text": "%",
    "inhibition of growth at 30 µg/mL": 17.8
  },
  {
    "Compound smiles": "C=C1[C@H](OC(C)=O)C[C@@H](OC(=O)c2cccnc2)C(C)(C)/C=C/[C@@H](C)C(=O)[C@@]2(OC(C)=O)C[C@@](C)(OC(C)=O)[C@H](OC(C)=O)[C@@H]2[C@H]1OC(C)=O",
    "Units text": "%",
    "inhibition of growth at 30 µg/mL": 17.9
  }
]

Please find the next molecule below.
C=C1[C@H](OC(C)=O)CC(=O)C(C)(C)/C=C/[C@@H](C)C(=O)[C@@]2(OC(C)=O)C[C@@](C)(OC(C)=O)[C@H](OC(C)=O)[C@@H]2[C@H]1OC(C)=O yielded inhibition of growth at 30 µg/mL of 36.3

---

Entries and their measured inhibition of growth at 30 µg/mL follow.
Test system: HeLa
Assay: Antiproliferative activity against human HeLa cells assessed as growth inhibition at 30 ug/mL after 72 hrs by MTT assay
Format: functional
Conditions: read-out: GI
Don't forget the unit after the value.

[
  {
    "Compound smiles": "C=C1[C@H](OC(C)=O)C[C@@H](OC(C)=O)C(C)(C)/C=C/[C@@H](C)C(=O)[C@@]2(OC(C)=O)C[C@@](C)(OC(C)=O)[C@H](OC(C)=O)[C@@H]2[C@H]1OC(C)=O",
    "Value": "26.7%"
  },
  {
    "Compound smiles": "C=C1[C@H](OC(C)=O)C[C@@H](OC(=O)c2cccnc2)[C@](C)(OC(C)=O)C/C=C/[C@@H](C)C(=O)[C@@]2(OC(C)=O)C[C@@](C)(OC(=O)c3cccnc3)[C@H](OC(C)=O)[C@@H]2[C@H]1OC(C)=O",
    "Value": "18.1%"
  }
]

C=C1[C@H](OC(=O)C(C)C)C[C@@H](OC(=O)c2cccnc2)C(C)(C)/C=C/[C@@H](C)C(=O)[C@@]2(OC(C)=O)C[C@@](C)(OC(C)=O)[C@H](OC(C)=O)[C@@H]2[C@H]1OC(C)=O yielded inhibition of growth at 30 µg/mL of 1.1%

C=C1[C@H](OC(=O)C(C)C)CC(=O)C(C)(C)/C=C/[C@@H](C)C(=O)[C@@]2(OC(C)=O)C[C@H](C)[C@H](OC(C)=O)[C@@H]2[C@H]1OC(C)=O yielded inhibition of growth at 30 µg/mL of 64.5%

C=C1[C@H](OC(C)=O)C[C@@H](OC(=O)c2cccnc2)C(C)(C)/C=C/[C@@H](C)C(=O)[C@@]2(OC(C)=O)C[C@@](C)(OC(=O)c3cccnc3)[C@H](OC(C)=O)[C@@H]2[C@H]1OC(C)=O yielded inhibition of growth at 30 µg/mL of 0.6%

---

Target: UniProt P08183
Assay: Inhibition of MDR1-mediated rhodamine 123 uptake expressed in mouse L5178Y cells transfected with pHa MDR1/A assessed as fluorescence activity ratio at 40 ug/mL by flow cytometry relative to untreated control
Assay type: cell-based
Experimental endpoint: Ratio
Number only, no unit.

Check out these entries, answers already filled in.
[
  {
    "Compound smiles": "C=C1[C@H](OC(C)=O)C[C@@H](OC(=O)c2cccnc2)[C@](C)(OC(C)=O)C/C=C/[C@@H](C)C(=O)[C@@]2(OC(C)=O)C[C@@](C)(OC(=O)c3cccnc3)[C@H](OC(C)=O)[C@@H]2[C@H]1OC(C)=O",
    "Ratio": 12.3
  },
  {
    "Compound smiles": "C=C1[C@H](OC(C)=O)CC(=O)C(C)(C)/C=C/[C@@H](C)C(=O)[C@@]2(OC(C)=O)C[C@@](C)(OC(=O)c3ccccc3)[C@H](OC(C)=O)[C@@H]2[C@H]1OC(C)=O",
    "Ratio": 19.9
  },
  {
    "Compound smiles": "C=C1[C@H](OC(=O)C(C)C)[C@@H](OC(C)=O)[C@@H](OC(C)=O)C(C)(C)/C=C/[C@@H](C)C(=O)[C@@]2(OC(C)=O)C[C@@](C)(OC(C)=O)[C@H](OC(C)=O)[C@@H]2[C@H]1OC(C)=O",
    "Ratio": 14.8
  },
  {
    "Compound smiles": "C=C1[C@H](OC(=O)C(C)C)[C@@H](OC(C)=O)[C@@H](OC(C)=O)C(C)(C)[C@@H]2O[C@](O)([C@H](C)[C@@H]2OC(C)=O)[C@@]2(OC(C)=O)C[C@@](C)(OC(C)=O)[C@H](OC(C)=O)[C@@H]2[C@H]1OC(C)=O",
    "Ratio": 1
  },
  {
    "Compound smiles": "C=C1[C@H](OC(C)=O)CC(=O)C(C)(C)/C=C/[C@@H](C)C(=O)[C@@]2(OC(C)=O)C[C@@](C)(OC(C)=O)[C@H](OC(C)=O)[C@@H]2[C@H]1OC(C)=O",
    "Ratio": 7.8
  }
]

CC(=O)O[C@H]1[C@H]2OC(=O)CC[C@](O)([C@@H]1OC(=O)C(C)C)[C@H](OC(C)=O)[C@H]1[C@@H](OC(C)=O)[C@](C)(OC(C)=O)C[C@]1(OC(C)=O)C(=O)[C@H](C)[C@H]1O[C@@H]1C2(C)C yielded Ratio of 17.5

C=C1[C@H](OC(=O)C(C)C)C[C@@H](OC(=O)c2cccnc2)C(C)(C)/C=C/[C@@H](C)C(=O)[C@@]2(OC(C)=O)C[C@H](C)[C@H](OC(C)=O)[C@@H]2[C@H]1OC(C)=O yielded Ratio of 119.9

---

System: HeLa
Experiment: Antiproliferative activity against human HeLa cells assessed as growth inhibition at 30 ug/mL after 72 hrs by MTT assay
Assay type: functional
Conditions: read-out: GI
Please use y whenever inhibition of growth at 30 µg/mL is not below 10%, and n whenever it is.

Worked examples follow.
[
  {
    "Compound smiles": "C=C1[C@H](OC(=O)C(C)C)[C@@H](OC(C)=O)[C@@H](OC(C)=O)C(C)(C)/C=C/[C@@H](C)C(=O)[C@@]2(OC(C)=O)C[C@@](C)(OC(C)=O)[C@H](OC(C)=O)[C@@H]2[C@H]1OC(C)=O",
    "Qualitative label": "y"
  },
  {
    "Compound smiles": "C=C1/C=C\\C(=O)C(C)(C)/C=C/[C@@H](C)C(=O)[C@@]2(OC(C)=O)C[C@@](C)(OC(C)=O)[C@H](OC(C)=O)[C@@H]2[C@H]1OC(C)=O",
    "Qualitative label": "y"
  },
  {
    "Compound smiles": "CC(=O)O[C@H]1[C@H]2OC(=O)CC[C@](O)([C@@H]1OC(=O)C(C)C)[C@H](OC(C)=O)[C@H]1[C@@H](OC(C)=O)[C@](C)(OC(C)=O)C[C@]1(OC(C)=O)C(=O)[C@H](C)[C@H]1O[C@@H]1C2(C)C",
    "Qualitative label": "y"
  },
  {
    "Compound smiles": "C=C1[C@H](OC(C)=O)CC(=O)C(C)(C)/C=C/[C@@H](C)C(=O)[C@@]2(OC(C)=O)C[C@@](C)(OC(=O)c3ccccc3)[C@H](OC(C)=O)[C@@H]2[C@H]1OC(C)=O",
    "Qualitative label": "y"
  }
]

Now consider the entry below.
Task: Does inhibition of growth at 30 µg/mL meet or surpass 10% for C=C1[C@H](OC(=O)C(C)C)C[C@@H](OC(=O)c2cccnc2)C(C)(C)/C=C/[C@@H](C)C(=O)[C@@]2(OC(C)=O)C[C@H](C)[C@H](OC(C)=O)[C@@H]2[C@H]1OC(C)=O ?
Result: n

Attribution: ChEMBL document CHEMBL1811799
